inhibition at 100 µM overview
Tested on: Plasmodium falciparum
test.summary: Antimicrobial activity against chloroquine-sensitive Plasmodium falciparum 3D7 assessed as inhibition of [3H] hypoxanthine incorporation at 100 uM after 24 hrs by scintillation counting
Assay type: functional
Numeric answer only, unit % assumed.

# example entries with known answers
[
  {
    "molecule": "O=C(/C=C/c1cc2ccccc2nc1Cl)c1cccc(Br)c1",
    "tested.on": "Plasmodium falciparum",
    "endpoint.name": "inhibition at 100 µM",
    "recorded.value": 61.2
  },
  {
    "molecule": "C/C(=C\\c1cc2cc(C)ccc2nc1Cl)C(=O)c1cccc(Br)c1",
    "tested.on": "Plasmodium falciparum",
    "endpoint.name": "inhibition at 100 µM",
    "recorded.value": 51.1
  },
  {
    "molecule": "C/C(=C\\c1cc2ccccc2nc1Cl)C(=O)c1cccc(Br)c1",
    "tested.on": "Plasmodium falciparum",
    "endpoint.name": "inhibition at 100 µM",
    "recorded.value": 34.3
  }
]

Query string: Would you kindly share the measured inhibition at 100 µM for C/C(=C\c1cc2cc(C)ccc2nc1Cl)C(=O)c1cccc(Cl)c1 ?
Result string: 8.74

* * *

System: Entamoeba histolytica
test.summary: […] activity against Entamoeba histolytica HM-1:IMSS trophozoites after 72 hrs by microdilution method
Format: functional, organism-based
Category scheme (IC50): bottom bin (below 1000 nM), middle bin (1000 nM to below 3000 nM), top bin (3000 nM or more)

Previously resolved entries follow.
[
  {
    "compound": "C/C(=C\\c1cc2ccccc2nc1Cl)C(=O)c1cccc(Br)c1",
    "answer.label": "top bin"
  },
  {
    "compound": "Cc1ccc2nc(Cl)c(/C=C/C(=O)c3ccc(Br)cc3)cc2c1",
    "answer.label": "top bin"
  }
]

Query string: For this compound, which bin applies? C/C(=C\c1cc2ccc(C)cc2nc1Cl)C(=O)c1cccc(Br)c1
Result string: bottom bin

Query string: Continue with O=C(/C=C/c1cc2ccccc2nc1Cl)c1cccc(Br)c1
Result string: top bin

Query string: For Cc1ncc([N+](=O)[O-])n1CCO [METRONIDAZOLE] then?
Result string: middle bin

Query string: Another compound: C/C(=C\c1cc2cc(C)ccc2nc1Cl)C(=O)c1cccc(Br)c1
Result string: middle bin

Query string: Another compound: O=C(/C=C/c1cc2ccccc2nc1Cl)c1ccc(Br)cc1
Result string: top bin

Query string: Queued: O=C(/C=C/c1cc2ccccc2nc1Cl)c1ccc(Cl)cc1
Result string: bottom bin

Query string: Also Cc1ccc2nc(Cl)c(/C=C/C(=O)c3ccccn3)cc2c1 ?
Result string: middle bin

Query string: Now the same for C/C(=C\c1cc2ccc(C)cc2nc1Cl)C(=O)c1cccc(Cl)c1
Result string: top bin

* * *

Test system: Plasmodium falciparum
test.summary: Antimicrobial activity against chloroquine-resistant Plasmodium falciparum FCB1
Assay type: functional, organism-based
condition.summary: FcB1/Columbia
pIC50: −log10 of the molar value.
endpoint.name: pIC50

[
  {
    "molecule": "Cc1ccc2cc(/C=C/C(=O)c3ccc(Cl)cc3)c(Cl)nc2c1",
    "recorded.value": "< 3.70"
  }
]

# next molecule below
Query string: Entry O=C(/C=C/c1cc2ccccc2nc1Cl)c1ccc(Cl)cc1 has what pIC50?
Result string: < 3.70

* * *

Test system: Entamoeba histolytica
test.summary: […] activity against Entamoeba histolytica HM-1:IMSS trophozoites after 72 hrs by microdilution method
Assay type: functional, organism-based
endpoint.name: IC50 (µM)
Please respond with the number in µM and leave the unit unwritten.

[
  {
    "molecule": "Cc1ccc2cc(/C=C/C(=O)c3ccc(Cl)cc3)c(Cl)nc2c1",
    "tested.on": "Entamoeba histolytica",
    "IC50 (µM)": 6.91
  },
  {
    "molecule": "O=C(/C=C/c1cc2ccccc2nc1Cl)c1ccccn1",
    "tested.on": "Entamoeba histolytica",
    "IC50 (µM)": 5.3
  },
  {
    "molecule": "Cc1ccc2cc(/C=C/C(=O)c3ccccn3)c(Cl)nc2c1",
    "tested.on": "Entamoeba histolytica",
    "IC50 (µM)": 0.05
  },
  {
    "molecule": "Cc1ccc2cc(/C=C/C(=O)c3cccc(Br)c3)c(Cl)nc2c1",
    "tested.on": "Entamoeba histolytica",
    "IC50 (µM)": 7.53
  }
]

Query string: Would you mind telling me what IC50 value was observed for C/C(=C\c1cc2cc(C)ccc2nc1Cl)C(=O)c1cccc(Cl)c1 ?
Result string: 0.06

* * *

System: Plasmodium falciparum
test.summary: Antimicrobial activity against chloroquine-sensitive Plasmodium falciparum 3D7 assessed as inhibition of [3H] hypoxanthine incorporation after 24 hrs by scintillation counting
Assay type: functional, organism-based
endpoint.name: pIC50
Here pIC50 is given on a logarithmic scale as minus log10 of the concentration in mol/L.

Example compounds with recorded pIC50:
[
  {
    "molecule": "Cc1ccc2cc(/C=C/C(=O)c3ccccn3)c(Cl)nc2c1",
    "pIC50": 4.50
  },
  {
    "molecule": "C=C[C@H]1CN2CC[C@H]1C[C@H]2[C@H](O)c1ccnc2ccc(OC)cc12",
    "pIC50": 6.85
  },
  {
    "molecule": "C/C(=C\\c1cc2ccc(C)cc2nc1Cl)C(=O)c1cccc(Cl)c1",
    "pIC50": 4.30
  },
  {
    "molecule": "Cc1ccc2cc(/C=C/C(=O)c3cccc(Br)c3)c(Cl)nc2c1",
    "pIC50": 4.22
  },
  {
    "molecule": "O=C(/C=C/c1cc2ccccc2nc1Cl)c1ccc(Br)cc1",
    "pIC50": 4.35
  }
]

Query string: Tell me the measured pIC50 of Cc1ccc2nc(Cl)c(/C=C/C(=O)c3ccc(Br)cc3)cc2c1 , please.
Result string: 4.13

Query string: Another compound: Cc1ccc2nc(Cl)c(/C=C/C(=O)c3ccccn3)cc2c1
Result string: 4.50

Query string: Also check C/C(=C\c1cc2ccc(C)cc2nc1Cl)C(=O)c1cccc(Br)c1
Result string: 4.33

Query string: Check O=C(/C=C/c1cc2ccccc2nc1Cl)c1ccc(Cl)cc1 too.
Result string: 4.41

Query string: What do you have for Cc1ccc2nc(Cl)c(/C=C/C(=O)c3cccc(Br)c3)cc2c1 ?
Result string: 4.30

Query string: Param item: O=C(/C=C/c1cc2ccccc2nc1Cl)c1ccccn1
Result string: 4.50
